This collection of values is drawn from paper PMC4774911.

testedOn: BMPR2 (Homo sapiens, UniProt Q13873)

compound | IC50
CN(C)CC(O)COc1ccc(Nc2ncc([N+](=O)[O-])c(Nc3ccccc3O)n2)cc1.O=C(O)C(F)(F)F (stereo not shown) [TCMDC-141399] | > 20 µM

---

testedOn: EPHB6 (Homo sapiens, UniProt O15197)
Sequence (O15197 1-1021): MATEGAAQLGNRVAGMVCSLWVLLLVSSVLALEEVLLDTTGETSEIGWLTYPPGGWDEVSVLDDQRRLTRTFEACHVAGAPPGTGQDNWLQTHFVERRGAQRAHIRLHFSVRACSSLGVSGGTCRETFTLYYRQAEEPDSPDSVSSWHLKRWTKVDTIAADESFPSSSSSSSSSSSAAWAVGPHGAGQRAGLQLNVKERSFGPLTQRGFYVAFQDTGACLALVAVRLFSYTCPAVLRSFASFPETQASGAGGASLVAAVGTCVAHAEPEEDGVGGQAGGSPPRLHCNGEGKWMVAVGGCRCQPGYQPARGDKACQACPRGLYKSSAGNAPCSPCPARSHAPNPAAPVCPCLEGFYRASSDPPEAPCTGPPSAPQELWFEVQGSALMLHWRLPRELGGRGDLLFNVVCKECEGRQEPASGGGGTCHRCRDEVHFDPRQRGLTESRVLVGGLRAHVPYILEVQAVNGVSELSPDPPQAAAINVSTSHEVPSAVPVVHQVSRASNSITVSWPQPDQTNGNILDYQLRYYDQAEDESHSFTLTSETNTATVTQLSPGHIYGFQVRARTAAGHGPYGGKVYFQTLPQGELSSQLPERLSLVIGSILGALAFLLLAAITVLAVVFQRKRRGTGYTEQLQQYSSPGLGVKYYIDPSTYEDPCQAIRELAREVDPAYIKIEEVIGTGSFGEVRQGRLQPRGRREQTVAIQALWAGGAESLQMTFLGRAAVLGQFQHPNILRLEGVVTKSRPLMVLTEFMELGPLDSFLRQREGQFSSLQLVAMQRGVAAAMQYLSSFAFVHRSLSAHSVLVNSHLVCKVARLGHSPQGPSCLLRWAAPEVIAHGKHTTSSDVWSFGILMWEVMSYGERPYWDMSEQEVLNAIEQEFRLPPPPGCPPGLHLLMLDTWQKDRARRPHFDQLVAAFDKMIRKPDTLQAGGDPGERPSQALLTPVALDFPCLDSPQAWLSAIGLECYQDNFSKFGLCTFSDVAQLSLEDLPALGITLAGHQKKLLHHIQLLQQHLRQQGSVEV

compound | testedOn | IC50
Cl.NCC1(c2nc(-c3ccc(Cl)c(O)c3)c(-c3ccncc3)[nH]2)CCCCC1 [TCMDC-141154] | EPHB6 (Homo sapiens, UniProt O15197) | > 20 µM
CN1CCN(c2ccc(Nc3ncc(C#N)c(Nc4ccccc4C(N)=O)n3)cc2)CC1.Cl [TCMDC-134116] | EPHB6 (Homo sapiens, UniProt O15197) | > 20 µM
CN(C)CC(O)COc1ccc(Nc2ncc([N+](=O)[O-])c(Nc3ccccc3O)n2)cc1.O=C(O)C(F)(F)F (stereo not drawn) [TCMDC-141399] | EPHB6 (Homo sapiens, UniProt O15197) | > 20 µM

---

Endpoint: IC50. System: ITK (Homo sapiens). Items follow.
Sequence (Q08881 whole entry): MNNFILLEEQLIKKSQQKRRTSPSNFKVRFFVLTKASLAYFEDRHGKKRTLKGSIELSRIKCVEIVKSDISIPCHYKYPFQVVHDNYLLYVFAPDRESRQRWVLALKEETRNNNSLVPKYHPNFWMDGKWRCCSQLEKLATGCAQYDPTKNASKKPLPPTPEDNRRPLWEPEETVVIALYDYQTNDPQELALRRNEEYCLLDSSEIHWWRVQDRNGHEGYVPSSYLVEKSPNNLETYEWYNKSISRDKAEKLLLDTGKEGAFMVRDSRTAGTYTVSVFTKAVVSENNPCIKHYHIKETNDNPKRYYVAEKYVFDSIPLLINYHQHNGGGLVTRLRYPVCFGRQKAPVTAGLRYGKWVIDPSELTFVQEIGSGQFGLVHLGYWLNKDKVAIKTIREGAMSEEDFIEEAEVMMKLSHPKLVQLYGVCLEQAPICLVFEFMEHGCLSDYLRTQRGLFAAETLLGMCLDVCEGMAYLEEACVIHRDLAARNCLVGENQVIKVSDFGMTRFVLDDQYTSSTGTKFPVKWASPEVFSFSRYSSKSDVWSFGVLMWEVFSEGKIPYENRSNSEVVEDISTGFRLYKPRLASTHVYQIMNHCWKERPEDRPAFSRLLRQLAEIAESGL
quantity: IC50 (µM)

compound | units | modifierSign | reportedMeasurement
Cl.NCC1(c2nc(-c3ccc(Cl)c(O)c3)c(-c3ccncc3)[nH]2)CCCCC1 | µM | > | 20
CN1CCN(c2ccc(Nc3ncc(C#N)c(Nc4ccccc4C(N)=O)n3)cc2)CC1.Cl | µM | = | 0.14
CN(C)CC(O)COc1ccc(Nc2ncc([N+](=O)[O-])c(Nc3ccccc3O)n2)cc1.O=C(O)C(F)(F)F (stereo not drawn) | µM | = | 1.7

---

testedOn: UniProtKB Q12851
Sequence (Q12851 whole entry): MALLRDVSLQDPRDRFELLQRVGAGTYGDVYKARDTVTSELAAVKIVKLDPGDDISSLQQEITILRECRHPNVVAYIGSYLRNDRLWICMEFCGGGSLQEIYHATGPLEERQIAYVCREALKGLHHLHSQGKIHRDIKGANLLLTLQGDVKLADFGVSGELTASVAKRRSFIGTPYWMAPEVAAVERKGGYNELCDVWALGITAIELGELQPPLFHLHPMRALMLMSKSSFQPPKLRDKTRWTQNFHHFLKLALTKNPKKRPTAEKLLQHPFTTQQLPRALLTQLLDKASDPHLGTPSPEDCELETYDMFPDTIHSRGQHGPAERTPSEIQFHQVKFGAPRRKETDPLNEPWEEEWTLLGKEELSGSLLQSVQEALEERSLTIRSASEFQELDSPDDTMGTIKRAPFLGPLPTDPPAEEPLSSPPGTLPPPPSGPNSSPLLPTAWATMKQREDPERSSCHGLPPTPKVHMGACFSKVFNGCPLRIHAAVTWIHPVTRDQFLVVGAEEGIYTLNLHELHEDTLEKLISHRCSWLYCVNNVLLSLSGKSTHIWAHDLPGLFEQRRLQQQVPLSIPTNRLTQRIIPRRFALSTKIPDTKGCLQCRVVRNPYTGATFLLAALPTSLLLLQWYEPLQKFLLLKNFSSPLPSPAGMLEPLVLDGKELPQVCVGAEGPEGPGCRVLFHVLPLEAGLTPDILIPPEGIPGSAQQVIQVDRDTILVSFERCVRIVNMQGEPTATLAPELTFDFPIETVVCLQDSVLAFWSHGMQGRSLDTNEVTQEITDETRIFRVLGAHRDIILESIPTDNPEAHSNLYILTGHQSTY
protocolDetails: biochemical
experimentalParameters: read-out: KDapp
quantity: Kd (nM)

compound | quantity | units | reportedMeasurement
CN1CCN(c2ccc(Nc3ncc(C#N)c(Nc4ccccc4C(N)=O)n3)cc2)CC1.Cl [TCMDC-134116] | Kd | nM | 648

---

testedOn: ACVR1 (Homo sapiens, UniProt Q04771)
protocolDetails: biochemical
Set-up: endogenous in cells; host or cells: K562 cell extract; species or system K562 (extract); replicate k of n = 2 (each experiment ID is one independent experiment; two experiment IDs per compound)
experimentalParameters: read-out: KDapp
pKd: −log10 of the molar value.

compound | pKd
CN1CCN(c2ccc(Nc3ncc(C#N)c(Nc4ccccc4C(N)=O)n3)cc2)CC1.Cl [TCMDC-134116] | 5.66

---

Endpoint: IC50. System: LATS1 (Homo sapiens, UniProt O95835). Items follow.
Sequence (O95835 whole entry): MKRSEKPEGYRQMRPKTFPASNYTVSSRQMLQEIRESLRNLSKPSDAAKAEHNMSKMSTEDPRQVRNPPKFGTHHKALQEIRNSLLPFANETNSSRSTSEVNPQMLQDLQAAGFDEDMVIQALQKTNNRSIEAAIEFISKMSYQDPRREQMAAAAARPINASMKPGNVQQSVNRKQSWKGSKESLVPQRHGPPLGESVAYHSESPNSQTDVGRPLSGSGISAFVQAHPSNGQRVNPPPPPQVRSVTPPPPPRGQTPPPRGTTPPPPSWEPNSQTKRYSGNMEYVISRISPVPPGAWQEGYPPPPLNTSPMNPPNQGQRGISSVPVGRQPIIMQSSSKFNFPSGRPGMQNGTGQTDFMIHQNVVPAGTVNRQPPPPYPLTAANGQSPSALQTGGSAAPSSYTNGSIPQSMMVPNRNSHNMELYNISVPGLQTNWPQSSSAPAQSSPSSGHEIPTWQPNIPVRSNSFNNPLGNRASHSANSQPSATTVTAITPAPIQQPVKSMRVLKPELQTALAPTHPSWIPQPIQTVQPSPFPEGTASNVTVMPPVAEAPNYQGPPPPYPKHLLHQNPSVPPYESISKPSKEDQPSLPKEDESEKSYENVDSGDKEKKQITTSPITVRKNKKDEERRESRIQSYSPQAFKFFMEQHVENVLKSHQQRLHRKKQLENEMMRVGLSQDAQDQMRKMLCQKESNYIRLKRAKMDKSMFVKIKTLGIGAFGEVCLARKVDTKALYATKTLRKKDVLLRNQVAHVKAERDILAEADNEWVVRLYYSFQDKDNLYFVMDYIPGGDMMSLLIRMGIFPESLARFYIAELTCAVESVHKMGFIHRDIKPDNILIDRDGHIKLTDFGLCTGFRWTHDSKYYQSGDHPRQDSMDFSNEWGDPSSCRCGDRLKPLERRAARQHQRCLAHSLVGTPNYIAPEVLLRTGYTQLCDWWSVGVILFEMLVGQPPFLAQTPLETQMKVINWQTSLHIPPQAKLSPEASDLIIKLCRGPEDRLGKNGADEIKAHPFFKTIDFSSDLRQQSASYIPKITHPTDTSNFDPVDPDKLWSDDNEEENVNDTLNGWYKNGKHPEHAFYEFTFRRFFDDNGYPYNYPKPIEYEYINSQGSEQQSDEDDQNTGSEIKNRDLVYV
quantity: IC50

molecule | reportedMeasurement
CN1CCN(c2ccc(Nc3ncc(C#N)c(Nc4ccccc4C(N)=O)n3)cc2)CC1.Cl [TCMDC-134116] | 210 nM
Cl.NCC1(c2nc(-c3ccc(Cl)c(O)c3)c(-c3ccncc3)[nH]2)CCCCC1 [TCMDC-141154] | 1100 nM
CN(C)CC(O)COc1ccc(Nc2ncc([N+](=O)[O-])c(Nc3ccccc3O)n2)cc1.O=C(O)C(F)(F)F (stereo not drawn) [TCMDC-141399] | > 20000 nM

---

Reported pKd values are given for each entry in this list.
testedOn: ADCK1 (Homo sapiens, UniProt Q86TW2)
Sequence (Q86TW2 whole entry): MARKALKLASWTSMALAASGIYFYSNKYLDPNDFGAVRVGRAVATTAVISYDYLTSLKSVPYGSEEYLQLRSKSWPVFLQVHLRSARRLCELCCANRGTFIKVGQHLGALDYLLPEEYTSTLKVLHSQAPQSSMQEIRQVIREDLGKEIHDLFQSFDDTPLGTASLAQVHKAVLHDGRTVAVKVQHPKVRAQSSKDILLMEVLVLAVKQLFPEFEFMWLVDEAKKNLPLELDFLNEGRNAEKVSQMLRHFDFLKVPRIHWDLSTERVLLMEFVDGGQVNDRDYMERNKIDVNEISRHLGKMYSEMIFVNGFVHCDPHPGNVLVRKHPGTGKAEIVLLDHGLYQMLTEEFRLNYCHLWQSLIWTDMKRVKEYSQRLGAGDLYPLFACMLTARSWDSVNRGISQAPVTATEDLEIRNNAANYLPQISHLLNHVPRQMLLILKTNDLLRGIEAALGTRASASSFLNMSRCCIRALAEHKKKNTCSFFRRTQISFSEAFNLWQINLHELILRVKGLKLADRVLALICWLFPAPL
protocolDetails: biochemical
experimentalParameters: read-out: KDapp
pKd: −log10 of the molar value.

compound | testedOn | pKd
CN1CCN(c2ccc(Nc3ncc(C#N)c(Nc4ccccc4C(N)=O)n3)cc2)CC1.Cl | ADCK1 (Homo sapiens, UniProt Q86TW2) | 6.18
CN(C)CC(O)COc1ccc(Nc2ncc([N+](=O)[O-])c(Nc3ccccc3O)n2)cc1.O=C(O)C(F)(F)F (centres unmarked) | ADCK1 (Homo sapiens, UniProt Q86TW2) | 5.93

---

testedOn: AURKB (Homo sapiens)
Sequence (Q96GD4 whole entry): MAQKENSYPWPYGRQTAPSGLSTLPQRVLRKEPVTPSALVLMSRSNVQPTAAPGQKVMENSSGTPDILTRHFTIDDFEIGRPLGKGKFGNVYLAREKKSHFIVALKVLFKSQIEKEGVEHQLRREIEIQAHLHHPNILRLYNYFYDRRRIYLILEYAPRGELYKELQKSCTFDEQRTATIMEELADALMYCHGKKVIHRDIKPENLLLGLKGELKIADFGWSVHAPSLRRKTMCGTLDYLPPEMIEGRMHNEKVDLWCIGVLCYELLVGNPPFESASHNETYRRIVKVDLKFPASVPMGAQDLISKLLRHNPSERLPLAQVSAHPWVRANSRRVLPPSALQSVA
protocolDetails: biochemical
experimentalParameters: read-out: KDapp
pKd: −log10 of the molar value.

compound | pKd
CN(C)CC(O)COc1ccc(Nc2ncc([N+](=O)[O-])c(Nc3ccccc3O)n2)cc1.O=C(O)C(F)(F)F (stereo not shown) | 5.82

---

Endpoint: pIC50. System: UniProt:Q7KZI7. Items follow.
Sequence (Q7KZI7 whole entry): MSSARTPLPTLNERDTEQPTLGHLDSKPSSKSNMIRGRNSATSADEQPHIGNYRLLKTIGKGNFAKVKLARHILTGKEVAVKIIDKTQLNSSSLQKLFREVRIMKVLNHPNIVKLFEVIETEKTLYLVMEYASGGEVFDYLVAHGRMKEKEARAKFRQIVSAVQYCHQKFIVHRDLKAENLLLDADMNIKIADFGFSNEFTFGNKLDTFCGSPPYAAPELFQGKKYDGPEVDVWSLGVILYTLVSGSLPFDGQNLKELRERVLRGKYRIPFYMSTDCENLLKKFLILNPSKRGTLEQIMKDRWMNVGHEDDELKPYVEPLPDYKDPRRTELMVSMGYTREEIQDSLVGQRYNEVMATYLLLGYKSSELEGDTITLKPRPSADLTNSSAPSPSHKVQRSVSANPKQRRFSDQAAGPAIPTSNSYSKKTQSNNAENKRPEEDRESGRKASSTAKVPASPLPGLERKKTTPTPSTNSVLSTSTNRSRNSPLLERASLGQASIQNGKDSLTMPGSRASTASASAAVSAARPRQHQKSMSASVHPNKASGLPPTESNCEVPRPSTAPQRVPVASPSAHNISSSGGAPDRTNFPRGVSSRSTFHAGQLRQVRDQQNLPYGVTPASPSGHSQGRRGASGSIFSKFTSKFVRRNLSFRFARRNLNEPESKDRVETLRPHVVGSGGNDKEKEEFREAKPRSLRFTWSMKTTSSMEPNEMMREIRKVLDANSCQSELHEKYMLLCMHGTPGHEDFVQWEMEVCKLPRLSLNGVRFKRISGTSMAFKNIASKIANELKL
pIC50: −log10 of the molar value.

molecule | modifierSign | pIC50
Cl.NCC1(c2nc(-c3ccc(Cl)c(O)c3)c(-c3ccncc3)[nH]2)CCCCC1 | < | 4.70
CN(C)CC(O)COc1ccc(Nc2ncc([N+](=O)[O-])c(Nc3ccccc3O)n2)cc1.O=C(O)C(F)(F)F (centres unmarked) | = | 5.19

---

Target chain: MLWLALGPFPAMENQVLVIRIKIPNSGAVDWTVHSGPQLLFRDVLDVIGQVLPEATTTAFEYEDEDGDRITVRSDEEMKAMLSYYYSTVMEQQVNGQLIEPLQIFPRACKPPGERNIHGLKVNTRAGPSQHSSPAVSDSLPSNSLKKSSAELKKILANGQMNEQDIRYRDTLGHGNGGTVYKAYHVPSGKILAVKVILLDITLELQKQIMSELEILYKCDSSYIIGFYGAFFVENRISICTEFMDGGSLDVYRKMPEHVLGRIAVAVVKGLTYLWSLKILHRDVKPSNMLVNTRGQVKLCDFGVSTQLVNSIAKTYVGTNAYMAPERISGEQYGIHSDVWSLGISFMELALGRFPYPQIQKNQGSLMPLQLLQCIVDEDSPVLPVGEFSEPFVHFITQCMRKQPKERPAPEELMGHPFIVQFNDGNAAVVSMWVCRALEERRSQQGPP

molecule | modifierSign | IC50, nM
Cl.NCC1(c2nc(-c3ccc(Cl)c(O)c3)c(-c3ccncc3)[nH]2)CCCCC1 [TCMDC-141154] | = | 880
CN(C)CC(O)COc1ccc(Nc2ncc([N+](=O)[O-])c(Nc3ccccc3O)n2)cc1.O=C(O)C(F)(F)F (centres unmarked) [TCMDC-141399] | > | 20000

---

testedOn: NEK2 (Homo sapiens)
Sequence (P51955 whole entry): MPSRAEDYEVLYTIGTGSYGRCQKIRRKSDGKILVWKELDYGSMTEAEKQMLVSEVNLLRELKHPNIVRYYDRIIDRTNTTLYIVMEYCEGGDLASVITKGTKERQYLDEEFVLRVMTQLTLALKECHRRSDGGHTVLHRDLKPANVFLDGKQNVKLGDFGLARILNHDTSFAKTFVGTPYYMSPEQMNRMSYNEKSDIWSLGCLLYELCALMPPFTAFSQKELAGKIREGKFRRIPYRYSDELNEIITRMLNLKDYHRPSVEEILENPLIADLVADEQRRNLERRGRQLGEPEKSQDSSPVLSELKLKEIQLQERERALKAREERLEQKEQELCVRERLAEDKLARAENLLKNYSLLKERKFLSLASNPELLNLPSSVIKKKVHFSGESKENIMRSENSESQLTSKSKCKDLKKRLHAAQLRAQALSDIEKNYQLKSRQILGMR
pIC50: −log10 of the molar value.

molecule | testedOn | pIC50
Cl.NCC1(c2nc(-c3ccc(Cl)c(O)c3)c(-c3ccncc3)[nH]2)CCCCC1 | NEK2 (Homo sapiens) | < 4.70

---

Reported IC50 values are given for each entry in this list.
testedOn: Plasmodium falciparum protein kinase 6 (PK6) (Plasmodium falciparum)
Construct: 6-Histidine (N); made in house
Sequence (Q8IDW1 1-305): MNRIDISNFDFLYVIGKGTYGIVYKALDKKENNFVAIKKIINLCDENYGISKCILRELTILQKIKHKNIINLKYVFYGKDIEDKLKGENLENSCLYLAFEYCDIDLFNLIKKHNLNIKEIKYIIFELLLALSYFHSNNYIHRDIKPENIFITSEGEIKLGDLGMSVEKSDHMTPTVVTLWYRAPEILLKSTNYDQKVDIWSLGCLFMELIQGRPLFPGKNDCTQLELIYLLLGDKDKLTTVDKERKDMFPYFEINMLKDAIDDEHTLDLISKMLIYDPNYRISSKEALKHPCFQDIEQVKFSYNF
protocolDetails: biochemical
experimentalParameters: hits below 1 uM; read-out: PK6 IC50
quantity: IC50

compound | quantity | reportedMeasurement
NS(=O)(=O)c1ccc(Nc2nccc(-c3c(-c4cccc(NC(=O)c5c(F)cccc5F)c4)nn4ccccc34)n2)cc1 [TCMDC-135528] | IC50 | 140 nM
COc1cccc(-n2ncc3c(N/N=C/c4ccc(CN(C)CCN(C)C)cc4)ncnc32)c1 [TCMDC-138728] | IC50 | 58 nM
O=C(Cc1ccc(Nc2nccc(Nc3cccc4[nH]ncc34)n2)cc1)Nc1ccc(C(F)(F)F)cc1 [TCMDC-136243] | IC50 | 167 nM
N=C(N)c1ccc(Nc2nccc(Nc3nc(-c4ccccc4)cs3)n2)cc1.O=C(O)C(F)(F)F [TCMDC-136090] | IC50 | 413 nM
CCN(CC)CCNC(=O)c1ccc(Nc2ncc([N+](=O)[O-])c(Nc3ccccc3OC)n2)cc1.Cl [TCMDC-138727] | IC50 | 110 nM
Cc1ccc(S(=O)(=O)Nc2ccc(Nc3nccc(Nc4cccc5[nH]ncc45)n3)cc2)cc1 [TCMDC-136297] | IC50 | 823 nM
CS(=O)(=O)Cc1ccc(Nc2ncc(Cl)c(Nc3cccnc3C(N)=O)n2)cc1.Cl [TCMDC-134165] | IC50 | 691 nM
